- assaySystem: μ-opioid receptor expressed in HEK cells (Mus musculus)
- Construct: expressed in transfected cells; host or cells: HEK (human embryonic kidney) cells
- testDescription: Opioid receptor binding study, HEK-μ, [3H]DAMGO
endpoint: pIC50
Numbers only, as −log10 of the molar value.

Prompt: Name the recorded pIC50 of the item O=C(O)CC(CO)CN1CC[C@]23c4c5ccc(O)c4O[C@H]2[C@@H](O)CC[C@@]3(O)[C@H]1C5 (stereo partly shown) in your answer.
Completion: 5.49

----------
- assaySystem: μ (MOP) (h) (Homo sapiens, UniProt P35372)
- Sequence (P35372 whole entry): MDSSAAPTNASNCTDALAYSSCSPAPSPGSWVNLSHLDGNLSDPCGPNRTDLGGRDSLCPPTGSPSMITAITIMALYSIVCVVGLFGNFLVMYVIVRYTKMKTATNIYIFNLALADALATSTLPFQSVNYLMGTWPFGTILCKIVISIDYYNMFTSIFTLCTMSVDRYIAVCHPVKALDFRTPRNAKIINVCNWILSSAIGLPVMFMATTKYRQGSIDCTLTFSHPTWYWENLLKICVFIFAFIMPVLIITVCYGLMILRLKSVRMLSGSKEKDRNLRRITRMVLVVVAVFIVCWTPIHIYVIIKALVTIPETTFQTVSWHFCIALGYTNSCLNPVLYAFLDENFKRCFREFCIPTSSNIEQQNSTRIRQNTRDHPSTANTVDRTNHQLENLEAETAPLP
- testDescription: biochemical
- Assay type: binding
- assayContext: against a μ-opioid receptor agonist ligand
endpoint: Ki (nM)
Numbers only, in nM.

Prompt: Name the recorded Ki of the item O=C(O)CC(CO)CN1CC[C@]23c4c5ccc(O)c4O[C@H]2[C@@H](O)CC[C@@]3(O)[C@H]1C5 (stereo partly shown) [Compound 1] in your answer.
Completion: 1300

----------
- assaySystem: μ-opioid receptor expressed in HEK cells (Mus musculus, UniProt P42866)
- Construct: expressed in transfected cells; host or cells: HEK (human embryonic kidney) cells
- Sequence (P42866 whole entry): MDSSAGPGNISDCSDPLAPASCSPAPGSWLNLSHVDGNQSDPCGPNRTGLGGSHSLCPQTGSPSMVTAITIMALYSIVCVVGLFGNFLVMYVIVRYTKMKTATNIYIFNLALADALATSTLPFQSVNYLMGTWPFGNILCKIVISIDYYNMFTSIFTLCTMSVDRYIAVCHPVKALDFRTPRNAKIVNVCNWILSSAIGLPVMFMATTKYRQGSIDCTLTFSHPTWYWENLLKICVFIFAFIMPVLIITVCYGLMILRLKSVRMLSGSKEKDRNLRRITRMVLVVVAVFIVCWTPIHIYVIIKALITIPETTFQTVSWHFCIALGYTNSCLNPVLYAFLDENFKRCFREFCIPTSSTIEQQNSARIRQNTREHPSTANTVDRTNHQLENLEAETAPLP
- testDescription: Opioid cell functional assay, opioid-antagonist assay, HEK-μ (CTOP)
- Type: cell-based
pIC50: −log10 of the molar value.
endpoint: pIC50

Prompt: Name the recorded pIC50 of the item O=C(O)CC(CO)CN1CC[C@]23c4c5ccc(O)c4O[C@H]2[C@@H](O)CC[C@@]3(O)[C@H]1C5 (stereo partly shown) in your answer.
Completion: < 4.52

----------
- assaySystem: κ (KOP) (Rattus norvegicus)
- Sequence (P34975 whole entry): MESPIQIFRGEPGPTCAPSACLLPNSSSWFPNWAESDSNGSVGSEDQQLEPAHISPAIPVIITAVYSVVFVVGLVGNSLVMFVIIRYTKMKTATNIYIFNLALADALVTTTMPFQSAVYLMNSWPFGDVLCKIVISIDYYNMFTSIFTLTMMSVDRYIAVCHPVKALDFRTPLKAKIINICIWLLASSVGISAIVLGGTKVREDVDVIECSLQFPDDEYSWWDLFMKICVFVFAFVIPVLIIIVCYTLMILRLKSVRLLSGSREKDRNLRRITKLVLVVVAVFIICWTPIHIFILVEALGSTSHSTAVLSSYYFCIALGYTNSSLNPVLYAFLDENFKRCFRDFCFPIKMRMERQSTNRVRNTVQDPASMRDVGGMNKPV
endpoint: IC50
The answer consists of two parts: a number and, after it, its unit.

Prompt: Name the recorded IC50 of the item O=C(O)CC(CO)CN1CC[C@]23c4c5ccc(O)c4O[C@H]2[C@@H](O)CC[C@@]3(O)[C@H]1C5 (stereo partly shown) in your answer.
Completion: 74 µM

----------
- assaySystem: cloned human κ-opioid receptor expressed in CHO (Homo sapiens, UniProt P41145)
- Sequence (P41145 whole entry): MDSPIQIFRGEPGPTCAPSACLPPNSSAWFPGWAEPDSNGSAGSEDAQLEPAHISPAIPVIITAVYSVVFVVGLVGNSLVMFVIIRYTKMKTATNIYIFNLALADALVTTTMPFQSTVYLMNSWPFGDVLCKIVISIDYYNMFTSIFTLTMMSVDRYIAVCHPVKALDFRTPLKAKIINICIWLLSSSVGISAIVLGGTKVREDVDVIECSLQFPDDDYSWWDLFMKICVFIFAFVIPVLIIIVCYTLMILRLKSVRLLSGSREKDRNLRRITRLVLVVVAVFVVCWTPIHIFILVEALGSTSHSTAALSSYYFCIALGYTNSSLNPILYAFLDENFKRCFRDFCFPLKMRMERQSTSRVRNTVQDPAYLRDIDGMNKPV
- testDescription: cell-based
- assayContext: opioid-agonist assay
pEC50: −log10 of the molar value.
endpoint: pEC50

Prompt: Name the recorded pEC50 of the item O=C(O)CC(CO)CN1CC[C@]23c4c5ccc(O)c4O[C@H]2[C@@H](O)CC[C@@]3(O)[C@H]1C5 (stereo partly shown) in your answer.
Completion: < 4.00

----------
- assaySystem: μ-opioid receptor expressed in HEK cells (Mus musculus)
- Construct: expressed in transfected cells; host or cells: HEK (human embryonic kidney) cells
- testDescription: Opioid receptor binding study, HEK-μ, [3H]DAMGO
endpoint: pKi
One number for each entry, as −log10 of the molar value.

Prompt: Report value: pKi, system: μ-opioid receptor expressed in HEK cells (Mus musculus), molecule: O=C(O)CC(CO)CN1CC[C@]23c4c5ccc(O)c4O[C@H]2[C@@H](O)CC[C@@]3(O)[C@H]1C5 (stereo partly shown) [Compound 1]
Completion: 5.89

----------
- assaySystem: UniProtKB P35372
endpoint: pIC50
Answers are plain numbers, as −log10 of the molar value.

Prompt: Name the recorded pIC50 of the item O=C(O)CC(CO)CN1CC[C@]23c4c5ccc(O)c4O[C@H]2[C@@H](O)CC[C@@]3(O)[C@H]1C5 (stereo partly shown) [Compound 1] in your answer.
Completion: 5.49

----------
- assaySystem: cloned human κ-opioid receptor expressed in CHO (Homo sapiens)
- testDescription: biochemical
- Type: binding
- assayContext: CHO-κ, [3H]U 69593
endpoint: Ki (µM)
One number for each entry, in µM.

Prompt: Report value: Ki, system: cloned human κ-opioid receptor expressed in CHO (Homo sapiens), compound: O=C(O)CC(CO)CN1CC[C@]23c4c5ccc(O)c4O[C@H]2[C@@H](O)CC[C@@]3(O)[C@H]1C5 (stereo partly shown) [Compound 1]
Completion: 49
